Ref: patent US20040192672A1

# Tested on: wheat powdery mildew (Blumeria graminis)
# TEST PROTOCOL: Field test of intensity of attack on winter wheat
# Assay type: in vivo
# TEST CONTEXT: 125 g of active ingredient/ha per application (A and B), 52 days after Application B, winter wheat field plots
// reported % affected surface area per (second) leaf for each item listed
Value expressed in %; do not type the unit.

* CCCc1c(OCC)oc2ccc(I)cc2c1=O | 0.56
* CCCCOc1oc2ccc(I)cc2c(=O)c1CCC | 2.51
* CCCOc1oc2ccc(I)cc2c(=O)c1CCC | 2.53

// next entry
// recorded % affected surface area per (second) leaf for Fc1ccc(Oc2ccnc3cc(Cl)cc(Cl)c23)cc1 : 4.91
